# ASSAY_SYSTEM: GSK3β (h) (Homo sapiens, UniProt P49841)
# Sequence (P49841 whole entry): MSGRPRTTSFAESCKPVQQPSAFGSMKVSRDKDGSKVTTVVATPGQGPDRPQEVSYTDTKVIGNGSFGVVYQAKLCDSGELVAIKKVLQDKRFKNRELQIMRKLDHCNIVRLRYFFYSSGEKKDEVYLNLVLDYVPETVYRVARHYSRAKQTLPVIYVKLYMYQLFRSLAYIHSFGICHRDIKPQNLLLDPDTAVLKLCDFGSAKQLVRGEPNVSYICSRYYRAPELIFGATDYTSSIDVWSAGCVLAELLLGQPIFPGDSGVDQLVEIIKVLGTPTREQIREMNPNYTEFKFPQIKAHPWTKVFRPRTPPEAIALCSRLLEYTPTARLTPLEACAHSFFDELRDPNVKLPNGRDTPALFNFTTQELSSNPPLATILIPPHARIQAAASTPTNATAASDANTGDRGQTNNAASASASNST
# ASSAY_DETAILS: GSK-3β human kinase inhibition, SPA
# Format: biochemical
# CONDITION_DETAILS: read-out: GSK3b pIC50 (converted)

MOLECULE: O=C1NCCNCc2ccc(cc2)-c2ccnc(n2)Nc2ccc(N3CCOCC3)c(c2)CN[C@H]1Cc1ccccc1
ASSAY_SYSTEM: GSK3β (h) (Homo sapiens, UniProt P49841)
IC50: 1000 nM
//
MOLECULE: O=C1NCCCc2cc(ccn2)-c2ccnc(n2)Nc2cccc(c2)CN[C@H]1CO
ASSAY_SYSTEM: GSK3β (h) (Homo sapiens, UniProt P49841)
IC50: 37.2 nM
//
MOLECULE: O=C1NCc2cccc(c2)-c2ccnc(n2)Nc2cc(cc(C(=O)N3CCOCC3)c2)CN2CCC[C@@H]12
ASSAY_SYSTEM: GSK3β (h) (Homo sapiens, UniProt P49841)
IC50: 186 nM
//
MOLECULE: COc1ccc2cc1CN1CCN(CC1)CC(=O)N(C)CCN(C)c1ccc(cn1)-c1ccnc(n1)N2
ASSAY_SYSTEM: GSK3β (h) (Homo sapiens, UniProt P49841)
IC50: 4900 nM
//
MOLECULE: O=C1NCc2cccc(c2)-c2ccnc(n2)Nc2cccc(c2)CN2C[C@@H](O)C[C@@H]12
ASSAY_SYSTEM: GSK3β (h) (Homo sapiens, UniProt P49841)
IC50: 72.4 nM
//
MOLECULE: COc1ccc2cc1CN(C)CCCNC(=O)C1CCN(CC1)Cc1cc(Br)cc(c1)Nc1nccc-2n1
ASSAY_SYSTEM: GSK3β (h) (Homo sapiens, UniProt P49841)
IC50: > 10000 nM
//
MOLECULE: COc1cc2cc(c1OC)CNC(=O)[C@H](CO)NCc1cccc(c1)-c1ccnc(n1)N2
ASSAY_SYSTEM: GSK3β (h) (Homo sapiens, UniProt P49841)
IC50: 309 nM
//
MOLECULE: CN(C)CCNC(=O)c1ccc2cc1CN1CCC[C@H]1C(=O)NCc1cccc(c1)-c1ccnc(n1)N2
ASSAY_SYSTEM: GSK3β (h) (Homo sapiens, UniProt P49841)
IC50: 331 nM

----------
Catalogue of compounds with associated pIC50
# Test system: HCT-116
# ASSAY_DETAILS: Cellular proliferation assay (Alamar blue), HCT-116
# Assay type: cell-based
# CONDITION_DETAILS: Homo sapiens, 10% FCS, 72 hours with compound, Alamar blue 4 h
pIC50: −log10 of the molar value.
RECORDED_ENDPOINT: pIC50

MOLECULE: CN1CCCNC(=O)C2CCN(CC2)Cc2cc(Br)cc(c2)Nc2nccc(n2)-c2ccc(cc2)C1
REPORTED_VALUE: < 5.00
//
MOLECULE: O=C1NCc2cccc(c2)-c2ccnc(n2)Nc2cc(ccc2Cl)CN2C[C@H](O)C[C@@H]12
REPORTED_VALUE: < 5.00
//
MOLECULE: COc1ccc2cc1CN(C)CCNC(=O)[C@H](CO)NCc1cccc(c1)Nc1nccc-2n1
REPORTED_VALUE: < 5.00
//
MOLECULE: O=C1CN2CCN(CC2)Cc2cc(ccc2N2CCOCC2)Nc2nccc(n2)-c2cccc(c2)OCCCN1
REPORTED_VALUE: < 5.00
//
MOLECULE: O=C1NCc2cccc(c2)-c2ccnc(n2)Nc2cc(CNC3CCCCC3)cc(c2)CN2CCC[C@@H]12
REPORTED_VALUE: 6.43
//
MOLECULE: CN1CCNC(=O)C2CCN(CC2)Cc2cccc(c2)Nc2nccc(n2)-c2ccc(cc2)C1
REPORTED_VALUE: < 5.00
//
MOLECULE: O=C1NCc2cccc(c2)-c2ccnc(n2)Nc2ccc(cc2)CN[C@H]1Cc1ccccc1
REPORTED_VALUE: < 5.00
//
MOLECULE: O=C1NCc2cccc(c2)-c2ccnc(n2)Nc2cc(ccc2Cl)CN[C@H]1Cc1ccccc1
REPORTED_VALUE: < 5.00
//
MOLECULE: CN1CCCNC(=O)[C@@H]2CCCN2Cc2cc(Br)cc(c2)Nc2nccc(n2)-c2ccc(cc2)C1
REPORTED_VALUE: < 5.00
//
MOLECULE: COc1cc2cc(c1OC)CNC(=O)[C@@H]1CCCN1Cc1cccc(c1)-c1ccnc(n1)N2
REPORTED_VALUE: 5.37
//
MOLECULE: CC(C)Nc1cc2cc(c1)Nc1nccc(n1)-c1ccc(cc1)CN(C)CCNC(=O)CN1CCN(CC1)C2
REPORTED_VALUE: < 5.00
//
MOLECULE: O=C1CN2CCN(CC2)Cc2cc(ccc2N2CCOCC2)Nc2nccc(n2)-c2ccc(cc2)CN1
REPORTED_VALUE: < 5.00
//
MOLECULE: O=C1NCc2cccc(c2)-c2ccnc(n2)Nc2cc(ccc2Cl)CN2CCC1CC2
REPORTED_VALUE: < 5.00
//
MOLECULE: O=C1NCc2ccc(cc2)-c2ccnc(n2)Nc2ccc(N3CCOCC3)c(c2)CN2C[C@H](O)C[C@@H]12
REPORTED_VALUE: < 5.00
//
MOLECULE: O=C1NCCNCc2ccc(cc2)-c2ccnc(n2)Nc2ccc(N3CCOCC3)c(c2)CN2CCC1CC2
REPORTED_VALUE: 5.29
//
MOLECULE: COc1cc2cc(c1)Nc1nccc(n1)-c1ccc(OC)c(c1)CN(C)CCNC(=O)CN1CCN(CC1)C2
REPORTED_VALUE: 5.19
